- Test system: MS2 coat protein
- Method Notes: apparent KD of MS2 coat protein; higher = weaker reporter binding
- Condition Set: Eterna round: R107; input ligand: theophylline 20 uM
Please mark true (1) if the recorded apparent KD of MS2 coat protein is equal to or greater than 30 nM, and false (0) if it falls below.

[[record]]
ordered_residues = "ACAUGAGGAUCACCCAUGUAUGACUAUCCUCGAGGACCGGUACGGCCGCCACUCGAACGAGUGGCUCGCGAGUGCGCACUCGCGG [5'end-1]"
assigned_label = "false (0)"

[[record]]
ordered_residues = "GCACUACAUGAGGAUCACCCAUGUGCAGAUACCAGAGGUGUAUGCCUCCCUUGGCAGCUGCGUCGCUCUGGAAGCCUAUUGGUUU [Same State Theophylline A GF16]"
assigned_label = "false (0)"

[[record]]
ordered_residues = "AACAUGAGGAUCACCCAUGUCCCUCCCUCCCGAGGACCGGUACGGCCGCCACUCGCCCUCCCUCCCUAAGAAAGAAAGAAGAAGA [Same State - Trypopjan A]"
assigned_label = "true (1)"

[[record]]
ordered_residues = "AAUUGGCACUGAAGGAGCGAGUUUACCUAAAUAACAUGAGGAUCACCCAUGUAAAAUGGGACUCAGGUAGGUCGCAGUUGUCAAA [Same State Arginine B GF 22]"
assigned_label = "true (1)"

[[record]]
ordered_residues = "ACAUUUAACUGAAGGAGCGUGAUAUGUACAUGAGGAUCACCCAUGUCUUACAUGUGAUAUUCACAGGUAGGUCGCAGACUAAUGA [JR_ExcArginiB_Sub004]"
assigned_label = "false (0)"

[[record]]
ordered_residues = "GAUGAACUAUUUGAUACCAGACUACAUGAGGAUCACCCAUGUGAGUUUCGUCCUCUGCCAGUCCCUUGGCAGCAAAUAGUUUAUC [XTheo B #8]"
assigned_label = "true (1)"

[[record]]
ordered_residues = "CGGUAACCACAUGAGGAUCACCCAUGUGAAGGAGCGGCGAAUAAGCCAGGUAGGUCGCGCAUGAAUAAAUCAUGUAGGUGCCGAA [XArg-A 15 NuPack]"
assigned_label = "true (1)"

[[record]]
ordered_residues = "GCAUCCUAGUCGGCCGCCACUGACAUGAGGAUCACCCAUGUACAUGAGGAUCACCCAUGUUGUAGCAGGACCGGGACUAGGAUGC [SS Tryp B #17]"
assigned_label = "true (1)"

[[record]]
ordered_residues = "AUACAUGAGGAUCACCCAUGUGAUGGCCGGCGAGGACCGGUACGGCCGCCACUCGUGAUCCGUCCUGAGAGCAAAGCCCUCAACA [Lequcele]"
assigned_label = "true (1)"

[[record]]
ordered_residues = "CUAUAAUAUAGAAGGAGCGUCGAAAAUGGGUAAACAUGAGGAUCACCCAUGUAAAGGGAACGACAGGUAGGUCGCUAUAUUAUAG [AstromonsSSArgB#12]"
assigned_label = "true (1)"

[[record]]
ordered_residues = "GCUAGGUCAUCGGCCGCCACUAUUAGUGGUUCGAACAUGAGGAUCACCCAUGUGCCACAUGCGCAUAGGACCGGGAUGACCUAGC [SSTB NP+V+V2 #8]"
assigned_label = "false (0)"

[[record]]
ordered_residues = "ACAUGAGGAUCACCCAUGUAAUGGCACGAUACCAGCUGAUCCCGUGGCCCUUGGCAGCGUCCGGUGUGGUCCGCCGGGUUGGACC [HHHMULLIN]"
assigned_label = "true (1)"

